biological target: EGFR (d746-750 C797S) (Homo sapiens, UniProt P00533, C797S/DEL746-750); construct: purchased signalchem; test: Inhibition of EGFR (d746-750 C797S) biochemical enzymatic activity (HTRF); details: EGFR Del19-C797S, 1 mM ATP, 1 h, room temperature, read-out: IC50 (nM) @Del19-C797S
Sequence (P00533 with tags, fused parts or gaps DEL746-750/C797S limits assumed): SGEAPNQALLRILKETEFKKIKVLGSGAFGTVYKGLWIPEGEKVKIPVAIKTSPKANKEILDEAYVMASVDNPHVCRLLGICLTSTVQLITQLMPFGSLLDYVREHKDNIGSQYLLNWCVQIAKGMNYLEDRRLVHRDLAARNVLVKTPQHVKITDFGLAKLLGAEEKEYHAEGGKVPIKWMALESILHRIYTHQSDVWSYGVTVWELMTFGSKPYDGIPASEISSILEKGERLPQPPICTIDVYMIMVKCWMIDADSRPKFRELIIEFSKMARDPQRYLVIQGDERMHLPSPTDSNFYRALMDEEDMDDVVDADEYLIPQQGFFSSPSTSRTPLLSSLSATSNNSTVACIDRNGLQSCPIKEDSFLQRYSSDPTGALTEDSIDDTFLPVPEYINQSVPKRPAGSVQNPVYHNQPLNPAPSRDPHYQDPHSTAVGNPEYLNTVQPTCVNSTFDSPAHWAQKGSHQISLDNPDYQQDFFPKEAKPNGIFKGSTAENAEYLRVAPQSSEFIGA
Attribute: log10 IC50
Reported Endpoint: log10 IC50 (log10 of the value in nM)

>>> numeric_value("CN1CCC2(C1)CN(c1ccc3nc4n(c3c1)C13CCC(CN(CCOc5c(cnn5C)-c5cc(cn(C)c5=O)C(=O)N4)C1)C3)C2 (single isomer, unassigned) [Example A78A]")
2.69
>>> numeric_value("C[C@@H]1CCCOc2c(cnn2C)-c2cc(cn(C)c2=O)C(=O)Nc2nc3ccc(N4CCC(N(C)C)C(F)C4)cc3n2C1 (stereo partly drawn) [Example A38]")
-0.09
>>> numeric_value("CN(C)[C@@H]1CCN(c2ccc3nc4n(c3c2)C23CCC(CN(CCOc5c(cnn5C)-c5cc(cn(C)c5=O)C(=O)N4)C2)C3)C1 (single isomer, unassigned) [Example A66D]")
0.04
>>> numeric_value("CC(C)N1CCN(c2ccc3nc4n(c3c2)C23CCC(CN(CCOc5c(cnn5C)-c5cc(cn(C)c5=O)C(=O)N4)C2)C3)CC1 (single isomer, unassigned) [Example A108A]")
2.43
>>> numeric_value("Cn1ncc2c1OCCN1CC3CCC(CC3)(C1)n1c(nc3cc(F)c(N4CCOCC4)cc31)NC(=O)c1cc-2c(=O)n(C)c1 [Example A113]")
3.08
>>> numeric_value("Cc1cc2cc(n1)-c1cnn(C)c1OCCN1CC3CCC(CC3)(C1)n1c(nc3ccc(N4CCOCC4)cc31)NC2=O [Example B2]")
2.75

====

Measured IC50 values are reported for all entries that follow.
biological target: EGFR wild type (Homo sapiens, UniProt P00533); construct: purchased Carna Bio; test: Inhibition of EGFR wild type biochemical enzymatic activity (HTRF); conditions: EGFR wild type, 1 mM ATP, 1 h at room temperature, read-out: IC50 @WT
Sequence (P00533 25-1210): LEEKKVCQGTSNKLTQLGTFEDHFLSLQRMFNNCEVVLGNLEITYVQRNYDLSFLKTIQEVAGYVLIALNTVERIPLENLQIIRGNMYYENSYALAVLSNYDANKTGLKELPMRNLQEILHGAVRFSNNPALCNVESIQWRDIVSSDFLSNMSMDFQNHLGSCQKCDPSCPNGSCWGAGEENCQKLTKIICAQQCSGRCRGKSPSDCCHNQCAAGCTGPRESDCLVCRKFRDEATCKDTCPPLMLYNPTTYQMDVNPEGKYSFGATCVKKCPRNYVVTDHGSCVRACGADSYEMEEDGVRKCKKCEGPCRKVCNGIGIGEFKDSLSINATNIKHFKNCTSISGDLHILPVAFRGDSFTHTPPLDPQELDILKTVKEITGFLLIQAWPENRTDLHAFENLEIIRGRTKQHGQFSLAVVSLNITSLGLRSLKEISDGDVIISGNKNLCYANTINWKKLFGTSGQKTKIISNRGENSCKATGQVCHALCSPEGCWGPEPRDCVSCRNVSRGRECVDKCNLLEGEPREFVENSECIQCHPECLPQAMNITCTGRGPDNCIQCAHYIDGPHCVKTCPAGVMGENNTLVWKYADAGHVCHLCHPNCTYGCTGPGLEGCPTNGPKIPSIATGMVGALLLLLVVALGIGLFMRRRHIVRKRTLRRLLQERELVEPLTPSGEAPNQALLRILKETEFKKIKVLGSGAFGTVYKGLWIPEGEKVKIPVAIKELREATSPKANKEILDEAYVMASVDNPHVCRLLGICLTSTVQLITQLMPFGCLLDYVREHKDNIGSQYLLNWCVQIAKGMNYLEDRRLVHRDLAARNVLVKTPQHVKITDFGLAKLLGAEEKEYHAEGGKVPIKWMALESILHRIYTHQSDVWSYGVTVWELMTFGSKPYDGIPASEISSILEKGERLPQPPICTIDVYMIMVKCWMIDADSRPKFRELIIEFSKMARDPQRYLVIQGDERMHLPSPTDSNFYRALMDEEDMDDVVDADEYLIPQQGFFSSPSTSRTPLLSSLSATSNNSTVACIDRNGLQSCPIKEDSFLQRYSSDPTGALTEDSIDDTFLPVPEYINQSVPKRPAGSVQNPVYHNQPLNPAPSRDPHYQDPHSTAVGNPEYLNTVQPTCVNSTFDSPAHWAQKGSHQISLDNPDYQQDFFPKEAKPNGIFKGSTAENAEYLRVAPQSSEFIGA
Reported Endpoint: IC50

>>> result("Cc1cc2cc(n1)-c1cnn(C)c1OCCC[C@@H](C)Cn1c(nc3ccc4c(c31)CCN(C1COC1)C4)NC2=O [Example B13]")
"2540 nM"
>>> result("Cc1cc2cc(n1)-c1cnn(C)c1OCCN1CC3CCC(C3)(C1)n1c(nc3ccc(N4CCN(C5COC5)CC4)cc31)NC2=O (single isomer, unassigned) [Example B58A]")
"> 5000 nM"
>>> result("Cc1cc2cc(n1)-c1cnn(C)c1OCCCCCn1c(nc3ccc4c(c31)CN(C1COC1)CC4)NC2=O [Example B18]")
"> 5000 nM"
>>> result("Cc1cc2cc(n1)-c1cnn(C)c1OCCN1CCOCC(C1)n1c(nc3ccccc31)NC2=O (stereo not shown) [Example B7]")
"> 500 nM"

====

molecular target: EGFR L858R (Homo sapiens, UniProt P00533, L858R); construct: purchased Carna Bio; test: Inhibition of EGFR L858R biochemical enzymatic activity (HTRF); conditions: 1 mM ATP, 1 h, room temperature, read-out: IC50 (nM) @L858R
Sequence (P00533 25-1210 L858R): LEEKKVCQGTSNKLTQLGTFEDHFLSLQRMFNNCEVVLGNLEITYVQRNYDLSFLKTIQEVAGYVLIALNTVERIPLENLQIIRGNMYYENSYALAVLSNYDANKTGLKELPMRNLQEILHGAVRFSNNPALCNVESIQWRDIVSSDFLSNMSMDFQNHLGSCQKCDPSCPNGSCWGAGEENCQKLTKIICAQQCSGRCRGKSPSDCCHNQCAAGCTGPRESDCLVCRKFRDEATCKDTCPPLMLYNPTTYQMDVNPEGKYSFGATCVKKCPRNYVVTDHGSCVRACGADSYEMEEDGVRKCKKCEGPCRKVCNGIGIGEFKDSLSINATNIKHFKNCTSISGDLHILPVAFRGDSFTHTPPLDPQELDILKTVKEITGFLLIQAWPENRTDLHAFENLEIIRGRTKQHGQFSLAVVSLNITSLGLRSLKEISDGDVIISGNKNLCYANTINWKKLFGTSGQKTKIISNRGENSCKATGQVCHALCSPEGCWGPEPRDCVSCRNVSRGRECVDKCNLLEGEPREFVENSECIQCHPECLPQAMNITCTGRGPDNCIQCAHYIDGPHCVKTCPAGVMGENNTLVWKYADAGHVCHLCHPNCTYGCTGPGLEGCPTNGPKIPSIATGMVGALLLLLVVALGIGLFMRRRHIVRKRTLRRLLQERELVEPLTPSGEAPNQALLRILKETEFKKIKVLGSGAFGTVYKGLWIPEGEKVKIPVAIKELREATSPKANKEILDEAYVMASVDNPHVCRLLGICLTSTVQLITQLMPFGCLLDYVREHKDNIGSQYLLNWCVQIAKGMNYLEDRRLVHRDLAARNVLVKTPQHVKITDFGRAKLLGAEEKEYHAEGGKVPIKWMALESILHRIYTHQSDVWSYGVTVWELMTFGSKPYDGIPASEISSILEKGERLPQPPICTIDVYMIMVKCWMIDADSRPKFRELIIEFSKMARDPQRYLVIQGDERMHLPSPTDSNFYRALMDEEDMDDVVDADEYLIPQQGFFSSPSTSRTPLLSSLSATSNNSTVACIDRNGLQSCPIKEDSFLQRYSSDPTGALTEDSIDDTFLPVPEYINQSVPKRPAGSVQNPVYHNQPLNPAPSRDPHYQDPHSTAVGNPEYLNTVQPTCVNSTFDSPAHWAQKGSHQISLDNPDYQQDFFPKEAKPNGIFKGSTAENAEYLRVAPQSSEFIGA
Reported Endpoint: IC50 (nM)

>>> numeric_value("CN(C)C1CCN(c2ccc3nc4n(c3c2)C23CCC(CN(CCOc5c(cnn5C)-c5cc(cn(C)c5=O)C(=O)N4)C2)C3)CC1(F)F (single isomer, unassigned) [Example A97B]")
14
>>> numeric_value("CN(C)CCN(C)c1ccc2nc3n(c2c1)C12CCC(CN(CCOc4c(cnn4C)-c4cc(cn(C)c4=O)C(=O)N3)C1)C2 (single isomer, unassigned) [Example A85B]")
11
>>> numeric_value("CN1CCC2(CN(c3ccc4nc5n(c4c3)C34CCC(CN(CCOc6c(cnn6C)-c6cc(cn(C)c6=O)C(=O)N5)C3)C4)C2)C(F)(F)C1 (single isomer, unassigned) [Example A91A]")
3720
>>> numeric_value("Cn1ncc2c1OCCN1CC3CCC(C3)(C1)n1c(nc3ccc(N4CCOCC4)cc31)NC(=O)c1cc-2c(=O)n(C)c1 (single isomer, unassigned) [Example A62B]")
45

====

Catalogue of compounds with associated IC50
target: EGFR L858R (Homo sapiens, UniProt P00533, L858R); construct: purchased Carna Bio; assay: Inhibition of EGFR L858R biochemical enzymatic activity (HTRF); conditions: 1 mM ATP, 1 h, room temperature, read-out: IC50 (nM) @L858R
Reported Endpoint: IC50 (nM)

>>> numeric_value("CN(C)C1CN(c2ccc3nc4n(c3c2)C23CCC(CN(CCOc5c(cnn5C)-c5cc(cn(C)c5=O)C(=O)N4)C2)C3)CC1F (single isomer, unassigned) [Example A84A]")
830
>>> numeric_value("C[C@@H]1CCCOc2c(cnn2C)-c2cc(cn(C)c2=O)C(=O)Nc2nc3ccc(N4CC5(CCN(C)C5)C4)cc3n2C1 [Example A42]")
8.9
>>> numeric_value("CN1CCC2CN(c3ccc4nc5n(c4c3)C34CCC(CC3)CN(CCOc3c(cnn3C)-c3cc(cn(C)c3=O)C(=O)N5)C4)CC21 (stereo not drawn) [Example A127]")
118

====

Consider the following compounds and their measured IC50 readings.
Molecular target: EGFR (C797S L858R) (Homo sapiens, UniProt P00533, C797S/L858R)
Construct: purchased signalchem
Sequence (P00533 25-1210 C797S/L858R): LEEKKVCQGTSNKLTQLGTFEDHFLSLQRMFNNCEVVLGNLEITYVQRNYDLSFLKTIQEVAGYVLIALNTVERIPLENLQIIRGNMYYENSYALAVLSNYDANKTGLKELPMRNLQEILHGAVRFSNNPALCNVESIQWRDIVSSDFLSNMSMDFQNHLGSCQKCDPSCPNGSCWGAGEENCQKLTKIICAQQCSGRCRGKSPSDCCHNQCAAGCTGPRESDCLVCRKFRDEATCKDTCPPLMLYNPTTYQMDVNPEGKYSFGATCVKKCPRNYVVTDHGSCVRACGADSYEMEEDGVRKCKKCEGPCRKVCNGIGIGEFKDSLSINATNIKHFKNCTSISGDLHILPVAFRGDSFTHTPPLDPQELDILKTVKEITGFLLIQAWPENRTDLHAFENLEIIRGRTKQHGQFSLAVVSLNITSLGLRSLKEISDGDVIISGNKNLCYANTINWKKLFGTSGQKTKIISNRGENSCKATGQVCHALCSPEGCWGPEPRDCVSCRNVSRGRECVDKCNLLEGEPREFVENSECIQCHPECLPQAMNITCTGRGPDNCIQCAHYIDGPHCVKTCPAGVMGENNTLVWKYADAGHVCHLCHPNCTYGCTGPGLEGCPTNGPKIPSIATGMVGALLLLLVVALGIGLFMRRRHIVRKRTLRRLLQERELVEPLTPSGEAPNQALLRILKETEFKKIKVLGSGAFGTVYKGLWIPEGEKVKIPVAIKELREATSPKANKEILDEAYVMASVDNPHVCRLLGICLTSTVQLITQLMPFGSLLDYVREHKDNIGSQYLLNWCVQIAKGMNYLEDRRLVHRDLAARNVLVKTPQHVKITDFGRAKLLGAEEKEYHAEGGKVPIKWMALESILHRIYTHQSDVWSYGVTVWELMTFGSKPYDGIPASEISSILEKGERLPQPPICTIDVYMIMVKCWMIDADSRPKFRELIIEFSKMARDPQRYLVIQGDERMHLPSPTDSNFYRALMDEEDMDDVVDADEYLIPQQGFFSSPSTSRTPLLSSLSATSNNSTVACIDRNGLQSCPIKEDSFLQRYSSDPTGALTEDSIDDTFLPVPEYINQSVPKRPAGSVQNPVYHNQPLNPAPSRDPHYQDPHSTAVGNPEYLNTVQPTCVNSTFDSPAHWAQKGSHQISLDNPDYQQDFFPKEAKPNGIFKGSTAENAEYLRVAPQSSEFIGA
Experiment: Inhibition of EGFR (C797S L858R) biochemical enzymatic activity (HTRF)
Details: EGFR (C797S L858R), 1 mM ATP, 1 h at room temperature, read-out: IC50 @L858-C797S
Method: Biological Example 1: Inhibition of EGFR WT and Mutant Biochemical Enzymatic Activity The inhibition potency of compounds against these enzymes was assessed using Homogenous Time Resolved Fluorescence approach (HTRF, CisBio. Cat No. 62TKOPEJ). Inhibitory effects of the compounds were determined by measuring the enzymatic activity of EGFR enzyme phosphorylates 1 μM TK Substrate-biotin in the presence of 1 mM adenosine-5′-triphosphate (ATP) and varying concentrations of the test compound. […]
Reported Endpoint: IC50 (nM)

>>> numeric_value("Cc1cc2cc(n1)-c1cnn(C)c1OCCN1CC3CCC(C3)(C1)n1c(nc3ccccc31)NC2=O (centres unmarked) [Example B8B]")
200
>>> numeric_value("Cc1cc2cc(n1)-c1cnn(C)c1OCCN1CC3CCC(CC3)(C1)n1c(nc3ccc(N4CCC5(CCN(C)CC5)C4)cc31)NC2=O [Example B38]")
300
>>> numeric_value("Cc1cc2cc(n1)-c1cnn(C)c1OCCN1CC3CCC(CC3)(C1)n1c(nc3ccc(N4CC5CN(C)CC5C4)cc31)NC2=O (centres unmarked)")
203
>>> numeric_value("Cc1cc2cc(n1)-c1cnn(C)c1OCCN1CC3CCC(C3)(C1)n1c(nc3ccc(N4CCN(C5COC5)CC4)cc31)NC2=O (single isomer, unassigned) [Example B58B]")
33
>>> numeric_value("CCN1CCN(c2ccc3nc4n(c3c2)C23CCC(CN(CCOc5c(cnn5C)-c5cc(cc(C)n5)C(=O)N4)C2)C3)CC1 (single isomer, unassigned) [Example B56B]")
5.1
>>> numeric_value("Cc1cc2cc(n1)-c1cnn(C)c1OCCN1CC3CCC(C3)(C1)n1c(nc3ccc(N4CCN(C)CC4)cc31)NC2=O (centres unmarked) [Example B9B]")
3.3
>>> numeric_value("Cc1cc2cc(n1)-c1cnn(C)c1OCCN1CC3CCC(CC3)(C1)n1c(nc3ccc(N4CCN(C(C)C)CC4)cc31)NC2=O")
126
>>> numeric_value("Cc1cc2cc(n1)-c1cnn(C)c1OCCN1CC3CCC(C3)(C1)n1c(nc3ccc(N4CC[C@H](N(C)C)C4)cc31)NC2=O (single isomer, unassigned) [Example B41B]")
8.8
>>> numeric_value("Cc1cc2cc(n1)-c1cnn(C)c1OCCN1CC3CCC(C3)(C1)n1c(nc3ccc(N4CCC5(CN(C)C5)C4)cc31)NC2=O (single isomer, unassigned) [Example B50B]")
7
>>> numeric_value("Cc1cc2cc(n1)-c1cnn(C)c1OCCN1CC3CCC(CC3)(C1)n1c(nc3ccc(N4CCC5(CN(C)C5)C4)cc31)NC2=O")
99
>>> numeric_value("Cc1cc2cc(n1)-c1cnn(C)c1OCCN1CC3CCC(C3)(C1)n1c(nc3ccc(N4CC(N5CCOCC5)C4)cc31)NC2=O (single isomer, unassigned) [Example B48A]")
2920
>>> numeric_value("Cc1cc2cc(n1)-c1cnn(C)c1OCCN1CC3CCC(CC3)(C1)n1c(nc3ccc(N4CC[C@H](N(C)C)C4)cc31)NC2=O")
145

====

target: EGFR L858R (Homo sapiens, UniProt P00533, L858R); construct: purchased Carna Bio; assay: Inhibition of EGFR L858R biochemical enzymatic activity (HTRF); conditions: 1 mM ATP, 1 h, room temperature, read-out: IC50 (nM) @L858R
Below, each of the molecules is paired with its reported IC50 value.
Reported Endpoint: IC50 (nM)

>>> numeric_value("CN1CCN(c2ccc3nc4n(c3c2)C23CCC(CN(CCOc5c(cnn5C)-c5cc(cn(C)c5=O)C(=O)N4)C2)C3)CC1 (single isomer, unassigned) [Example A63B]")
1.6
>>> numeric_value("CN1CCN(c2ccc3nc4n(c3c2)C23CCC(CC2)CN(CCOc2c(cnn2C)-c2cc(cn(C)c2=O)C(=O)N4)C3)CC1")
44
>>> numeric_value("CN1CCN(c2ccc3nc4n(c3c2)C(C)(C)CCCCOc2c(cnn2C)-c2cc(cn(C)c2=O)C(=O)N4)CC1")
198
>>> numeric_value("CN1C2CC1CN(c1ccc3nc4n(c3c1)C13CCC(CN(CCOc5c(cnn5C)-c5cc(cn(C)c5=O)C(=O)N4)C1)C3)C2 (single isomer, unassigned) [Example A98A]")
1270
>>> numeric_value("C[C@@H]1CCCOc2c(cnn2C)-c2cc(cn(C)c2=O)C(=O)Nc2nc3ccc(N4CCN(C)CC4)c(Cl)c3n2C1")
212
>>> numeric_value("CN1CCC2(CC1)CCN(c1ccc3nc4n(c3c1)C13CCC(CC1)CN(CCOc1c(cnn1C)-c1cc(cn(C)c1=O)C(=O)N4)C3)C2")
65
>>> numeric_value("C[C@@H]1CCCOc2c(cnn2C)-c2cc(cn(C)c2=O)C(=O)Nc2nc3ccc(N4CCC(N(C)C)C(F)(F)C4)cc3n2C1 (stereo partly drawn)")
94
>>> numeric_value("CN(C)CCCN(C)c1ccc2nc3n(c2c1)C12CCC(CN(CCOc4c(cnn4C)-c4cc(cn(C)c4=O)C(=O)N3)C1)C2 (single isomer, unassigned) [Example A89A]")
3600
>>> numeric_value("Cn1ncc2c1OCCN1CC3CCC(C3)(C1)n1c(nc3ccc(N4CCC(N5CC(F)C5)C4)cc31)NC(=O)c1cc-2c(=O)n(C)c1 (single isomer, unassigned) [Example A94B2]")
45
>>> numeric_value("CN1CC2CC1CN2c1ccc2nc3n(c2c1)C12CCC(CN(CCOc4c(cnn4C)-c4cc(cn(C)c4=O)C(=O)N3)C1)C2 (single isomer, unassigned) [Example A105B]")
7.3
>>> numeric_value("CN1CCC2(CN(c3ccc4nc5n(c4c3)C34CCC(CN(CCOc6c(cnn6C)-c6cc(cn(C)c6=O)C(=O)N5)C3)C4)C2)C(F)(F)C1 (single isomer, unassigned) [Example A91B]")
11
>>> numeric_value("CN1CCN(c2ccc3nc4n(c3c2)CCN(CC(F)(F)F)CCOc2c(cnn2C)-c2cc(cn(C)c2=O)C(=O)N4)CC1")
13
